Origin of measurements: the supplement of paper PMC11417369

tested on: PfHDP1 homeodomain (GST-tagged); test: gcPBM binding intensity (ln(normalized median fluorescence intensity)); higher = stronger DNA binding
In all, about 25,000 sequences were measured (“ln(normalized median fluorescence intensity)”: median about 6.7, highest 2% from about 10 on). The entries come from a sample that favours the highest values as a whole.
So I've got a bunch of sequences here, and I need their gcPBM binding intensity (ln) values.
Answers are plain numbers.

[[record]]
biosequence = "TTATATGTATTTCTTTGTACACATTTTTATATATAT [XGTACX_site1462]"
test_result = 7.16

[[record]]
biosequence = "CTTATGTGCATACCTACACACTTACAGATATATATA [CACACA_site5622]"
test_result = 9.61

[[record]]
biosequence = "ATAAAAATATAAACATGTACATAAAAATCTATATAT [XGTACX_site405]"
test_result = 6.72


Record gcPBM binding intensity (ln) for all entries; do not skip any.
1. TAAATTTTAATAAATACACACAAATTTTAATTCTAT [CACACA_site6039]
2. AAAAAAATAAATAAATGTACACATATATATATATAT [XGTACX_site4350]

OUTPUT:
6.27
9.25

Record gcPBM binding intensity (ln) for all entries; do not skip any.
1. GTCGAGGATATATAAAGTACATATATATATATGATA [XGTACX_site1128]
2. TTTTTATCAAATAAATGTACACATATTAAATGAAAT [XGTACX_site555]
3. TTGAACTCTCTTACGCGTACGTGTTATTATGAAAAT [XGTACX_site6265]

OUTPUT:
[6.41, 6.6, 6.73]

Record gcPBM binding intensity (ln) for all entries; do not skip any.
1. TCTTAAAATATATAGGTGCAAAAAAAAAAAAAAAAA
2. TTTTTTAAATTTAAAGTGCATTATTATATATTTGTA

OUTPUT:
1: 8.62; 2: 8.5

---

So I've got a bunch of sequences here, and I need their gcPBM binding intensity (ln) values.
test system: PfHDP1 homeodomain (GST-tagged); test: gcPBM binding intensity (ln(normalized median fluorescence intensity)); higher = stronger DNA binding
Over roughly 25,000 sequences, “ln(normalized median fluorescence intensity)” has its median near 6.7; the highest 2% begin near 10. Shown is part of a subset that was picked to be rich in the highest values.
Answers are plain numbers.

Some sequences with known gcPBM binding intensity (ln) results, for comparison:
[[record]]
biosequence = "TTTTTATATTTTACATGTACATAAATATATTATATA [XGTACX_site958]"
quantity = "gcPBM binding intensity (ln)"
test_result = 6.46

[[record]]
biosequence = "AAAAATATATATATATATATATATATATTATTTTTT [TGCATGCA_negctrl_site378]"
quantity = "gcPBM binding intensity (ln)"
test_result = 7

[[record]]
biosequence = "AAGATTAAAAATTGCACACAAAAATATATTTTCTAT [CACACA_site1305]"
quantity = "gcPBM binding intensity (ln)"
test_result = 9.78

[[record]]
biosequence = "ATATATAAACTGAAGGGTACAATGAAAAAAGAACTT [XGTACX_site7219]"
quantity = "gcPBM binding intensity (ln)"
test_result = 6.81


Record gcPBM binding intensity (ln) for all entries; do not skip any.
1. ATCTGTACAGTTTTTGCACACATATAAATAAAAAAA [CACACA_site9198]
2. TTATAGAACTATATTGCACACATAATATATATATAT [CACACA_site9042]
3. TTTAAAAATAAAAGTACACACATAAACATATTGCAC [CACACA_site6784]

OUTPUT:
1: 10.7; 2: 10.1; 3: 7.47
